Tested on: Fibroblast
EXPERIMENT DESCRIPTION: Incucyte cell viability with human fibroblast; also: unitless GR value; below 1 slowed growth and below 0 cell loss
Assay type: toxicity, cell-based
REPORTED CONDITIONS: 18 h, 10 µM, compound concentration 10 uM, replicate number 2
Assign Fulfilled whenever Growth Rate does not fall below 0.6; assign Not fulfilled whenever it does.

- MOLECULE: "CC(C)S(=O)(=O)c1ccccc1Nc1nc(N[C@@H]2CCCN(CCCCCCCNC(=O)COc3cccc4c3C(=O)N(C3CCC(=O)N(C)C3=O)C4=O)C2)ncc1Cl (stereo partly drawn)"
  GROUP: "Not fulfilled"
- MOLECULE: "NC1(c2ccc(-c3nc4c(O)ccnn4c3-c3ccccc3)cc2)CCC1"
  GROUP: "Fulfilled"

# bool: Growth Rate of "CN1C(=O)c2ccccc2N(C)c2nc(Nc3cnn(C4CCNCC4)c3)ncc21" >= 0.6
Not fulfilled

Evaluate "CC(C)(C)c1ccc(-c2coc3ccc(-c4cn[nH]c4)nc23)cc1" : Growth Rate at minimum 0.6?
Not fulfilled

====

System: U2OS
EXPERIMENT DESCRIPTION: Incucyte cell viability with U2OS; also: unitless GR value; below 1 slowed growth and below 0 cell loss
Type: toxicity, cell-based
REPORTED CONDITIONS: human, 12 h, 10 µM, compound concentration 10 uM, replicate number 2
Lab note: compare Growth Rate with 0.8, writing Fulfilled if less and Not fulfilled if equal or more.

These recorded examples may help you get a feel for the data.
- MOLECULE: "Cc1ccccc1Oc1cc(-n2c(=O)cc(C(F)(F)F)[nH]c2=O)c2ccccc2c1Cl"
  GROUP: "Fulfilled"
- MOLECULE: "Cn1nc(C(=O)NCc2ccc(C(=O)O)cc2)cc1-c1ccc2[nH]ccc2c1"
  GROUP: "Not fulfilled"
- MOLECULE: "NC1(c2ccc(-c3nc4c(O)ccnn4c3-c3ccccc3)cc2)CCC1"
  GROUP: "Not fulfilled"
- MOLECULE: "CN(C)[C@H]1CC[C@H](Nc2ncc3ncnc(Nc4ccc(F)c(Cl)c4)c3n2)CC1"
  GROUP: "Fulfilled"
- MOLECULE: "Clc1cccc(Nc2nccc(NCCCN3CCOCC3)n2)c1"
  GROUP: "Fulfilled"
- MOLECULE: "Cc1cc(C(C#N)c2ccc(Cl)cc2)c(Cl)cc1NC(=O)c1cc(I)cc(I)c1O (centres undefined)"
  GROUP: "Not fulfilled"
- MOLECULE: "Cc1ccc(NC(=O)c2ccc3c(c2)OCCO3)cc1NC(=O)c1ccc2nc(OCCN3CCCC3)ccc2c1"
  GROUP: "Fulfilled"
- MOLECULE: "C=CC(=O)Nc1cc(Nc2nccc(-n3cc(CN(C)C)c(-c4ccccc4)n3)n2)c(OC)cc1N1CCOCC1"
  GROUP: "Not fulfilled"
- MOLECULE: "CCN(CC)C/C=C/C(=O)Nc1cc2c(Nc3ccc(F)c(Cl)c3)ncnc2cc1OCC1CC1"
  GROUP: "Fulfilled"
- MOLECULE: "O=C(Nc1cccc(Nc2nccc(Nc3cccc(C(F)(F)F)c3)n2)c1)C1CC1"
  GROUP: "Fulfilled"

is_below(Growth Rate, 0.8) for "Clc1ccccc1C(c1ccccc1)(c1ccccc1)n1cccn1" ?
Not fulfilled

In plain terms, does "COc1cc(Cl)c(C(=O)N[C@@H](CN[C@H]2CC[C@@H](N)CC2)Cc2ccc(C#N)cc2)cc1-c1ccc(CN[C@H](C)c2ccc(C)cc2)o1" come in under 0.8 for Growth Rate?
Fulfilled

Hi there! Is Growth Rate for "C=CC(=O)N1CCC[C@@H](n2nc(-c3ccc(Oc4ccccc4)cc3)c3c(N)ncnc32)C1" below 0.8, do you know?
Fulfilled

Hi there! Is Growth Rate for "CS(=O)(=O)O.C[C@H](NC(=O)c1cnc2n1[C@](C)(Cc1ccc(C#N)cc1)C(=O)N2c1cc(Cl)c(F)c(Cl)c1)C(=O)NC1(c2ccccn2)CC1" below 0.8, do you know?
Fulfilled

Report whether reported Growth Rate is lower than 0.8 (strictly) for "O=C1NC(c2cccc([N+](=O)[O-])c2)=CCN1c1ccccc1O"
Fulfilled

Growth Rate under 0.8? Item: "CNC(=O)c1c(F)cccc1Nc1nc(Nc2cc3c(cc2OC)CCN3C(=O)CN(C)C)nc2[nH]ccc12"
Fulfilled

Problem: For the molecule "Cc1[nH]c2c(N3CCCCC3)c(-c3ccccc3)nn2c(=O)c1-c1ccc(O)cc1" , is Growth Rate under 0.8?
Not fulfilled

Dear reviewer, please state whether "Cc1sc(C(=O)c2cncnc2N[C@@H]2C[C@H](COS(N)(=O)=O)[C@@H](O)C2)cc1[C@@H]1NCCc2ccc(Cl)cc21" has Growth Rate strictly beneath 0.8.
Fulfilled

# TODO verify Growth Rate < 0.8 strictly for this molecule: "O=C(NS(=O)(=O)N1CCC1)c1cc(C2CC2)c(OCC23CC4CC(CC(C4)C2)C3)cc1F"
Fulfilled

Could you please tell me whether Growth Rate recorded for "CN1CCN(c2ccc(C(=O)Nc3n[nH]c4ccc(Cc5cc(F)cc(F)c5)cc34)c(NC3CCOCC3)c2)CC1" is less than 0.8?
Fulfilled

Report whether reported Growth Rate is lower than 0.8 (strictly) for "CS(=O)(=O)CCNCc1ccc(-c2ccc3ncnc(Nc4ccc(OCc5cccc(F)c5)c(Cl)c4)c3c2)o1"
Not fulfilled

Input "CC(C)(C)c1cc(C(C)(C)C)c(NC(=O)c2c[nH]c3ccccc3c2=O)cc1O" ; condition: Growth Rate strictly below 0.8. Does it hold?
Fulfilled

Hello, I'm reviewing records and need to know if Growth Rate of "Cn1cncc1-c1cn(-c2cccc(C(=O)Nc3cccc(C(F)(F)F)c3)c2)nn1" is below 0.8. Could you check?
Not fulfilled

Growth Rate strictly < 0.8 for this molecule? "O=C(O)c1ccc(S(=O)(=O)N(Cc2ccc(OC(F)(F)F)cc2)c2ncc(C(F)(F)F)cc2Cl)cc1"
Fulfilled

Hi there! Is Growth Rate for "CNS(=O)(=O)c1ccc(N(C)C)c(Nc2ncnc3cc(OC)c(OC)cc23)c1" below 0.8, do you know?
Fulfilled

# TODO verify Growth Rate < 0.8 strictly for this molecule: CC(C)S(=O)(=O)c1ccccc1Nc1nc(N[C@@H]2CCCN(CCCCCCCNC(=O)COc3cccc4c3C(=O)N(C3CCC(=O)NC3=O)C4=O)C2)ncc1Cl (some centres undefined)
Fulfilled

Does the reported Growth Rate of "Cc1nc2c(cc1F)c(-c1nnc3c(n1)NC(=O)C3(C)C)nn2Cc1cccc(F)c1F" stay below 0.8?
Not fulfilled

// data source = ChEMBL document CHEMBL5303304
